Read-out: serum amyloid A (SAA), SAA1 (gene 6288)
Experiment: BSK_CASM3C_SAA: BioMAP Diversity Plus: CASM3C Assay for serum amyloid A (SAA) Biomarker Activity (AID 2283049);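 further: SAA protein level quantified by ELISA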
Details: primary human coronary artery smooth muscle cells; actives raise or lower the signal
Calls of active or inactive are those of the source. How the source made its calls: active means hit-call score of the fitted dose curve at least 0.9, where 1 is the maximum; inactive means score below 0.9.
Respond with a class label; see yes for active, no for inactive

Observe how each entry below is paired with its result.
{"columns": ["molecule", "cat"],
 "data": [
  ["CCOP(=S)(OCC)SCS(=O)(=O)CC", "no"],
  ["O=c1ssc(Cl)c1Cl", "yes"],
  ["Nc1ccc([N+](=O)[O-])cc1Cl", "no"],
  ["CCCCc1ccccc1", "no"],
  ["CCCCCCCc1ccc(O)cc1", "yes"]
]}

We next turn to a different molecule, shown below.
Please share the test call associated with O=S1(=O)OCC2C(CO1)C1(Cl)C(Cl)=C(Cl)C2(Cl)C1(Cl)Cl (centres undefined) . yes

###

Assay: ATG_PPRE_CIS: Attagene CIS-FACTORIAL HepG2 Assay for human Peroxisome Proliferator-activated Response Element (PPRE) (AID 2282958)
Conditions: HepG2 PPRE cis-element reporter, Attagene transcription factor profiling; actives raise or lower the signal
The source made the active and inactive calls. How the source made its calls: active means hit-call score of the fitted dose curve at least 0.9, where 1 is the maximum; inactive means score below 0.9.
Respond only with the outcome that fits, drawn from active, inactive

For orientation, consider the following solved cases.
{"columns": ["compound", "cat"],
 "data": [
  ["COP(=O)(O)OC", "inactive"],
  ["Nc1ccc([N+](=O)[O-])cc1Cl", "inactive"]
]}

Which outcome was assigned to CCCCN(CCCC)SN(C)C(=O)Oc1cccc2c1OC(C)(C)C2 in this test? inactive

What is the recorded call for this compound in the test? CCOP(=S)(OCC)SCn1nnc2ccccc2c1=O inactive

Called result for CCOc1ccc(C(C)(C)COCc2cccc(Oc3ccccc3)c2)cc1 inactive

Please state the recorded outcome for this compound: CSC(C)(C)C=NO inactive

I'd appreciate the recorded outcome for COP(=O)(CCC(=O)NCO)OC from this test. inactive

Hi team, can someone confirm the assay call for Nc1ccc(Cl)cc1 ? inactive

Entry O=P(Oc1ccccc1)(Oc1ccccc1)Oc1ccccc1 : call = ? inactive

// param item: CCOP(=S)(S)OCC ; yields the recorded call inactive

Could you kindly confirm the outcome this assay logged for CC(C)(C)c1ccccc1OP(=O)(Oc1ccccc1)Oc1ccccc1 ? inactive

Identify the outcome logged in this assay for the compound shown: CCCCCCCc1ccc(O)cc1 inactive

###

Read-out: Interferon-gamma inducible Protein 10 (IP10), CXCL10 (gene 3627)
Test: BSK_BE3C_IP10: BioMAP Diversity Plus: BE3C Assay for Interferon-gamma inducible Protein 10 (IP10) Biomarker Activity (AID 2283034)
Conditions: primary human bronchial epithelial cells; actives raise or lower the signal
Activity calls are given as the source filed them. How the source made its calls: active means hit-call score of the fitted dose curve at least 0.9, where 1 is the maximum; inactive means score below 0.9.
Choose the fitting class; nothing outside active, inactive is accepted.

Examples from the recorded data:
{"columns": ["molecule", "cat"],
 "data": [
  ["COCCOCCO", "inactive"],
  ["Cc1ccc(O)cc1C", "inactive"],
  ["COP(=O)(CCC(=O)NCO)OC", "inactive"],
  ["O=C(O)C(Cl)Cl", "inactive"],
  ["CCOP(=S)(OCC)SCS(=O)(=O)CC", "inactive"],
  ["CC(Cl)CN(C)C (centres undefined)", "inactive"]
]}

Field: next molecule
What outcome does the record of this test show for Cc1c([N+](=O)[O-])cc2c(c1[N+](=O)[O-])C(C)(C)CC2(C)C ? active
